System: 786-0 renal
Method Description: NCI-60 one-dose screen, 48 h (100 = growth as untreated, 0 = no growth, -100 = all killed)
Condition Parameters: 10 µM
About 83,000 compounds went through this panel and 20% of them were active in at least one assay; those are over-represented in the sample as a whole.
Readout: growth (%)
Response body: numeric value in %, unit text excluded.

Q. Look up growth for this compound: `CC(=O)/C=C/c1ccc(N(C)Cc2ccc(C(C)(C)C)cc2)cc1`
A. 97.3

Q. Reported growth for `CCN(Cc1ccccc1)c1ccc(/C=C2\COc3ccccc3C2=O)cc1` : what is it?
A. 86.9

Q. Looking for the measured growth of `CC(=O)/C=C/c1ccc(OCc2ccc(C(C)(C)C)cc2)cc1` , can you help?
A. 91.9

Q. Consider the compound shown here: `COc1ccc(C(=O)/C=C/c2ccc(OCc3ccc(Cl)cc3)cc2)cc1OC` What is its recorded growth?
A. 106

Q. Which growth is listed for `COc1ccc(C(=O)/C=C/c2ccc(OCc3cccc(C(F)(F)F)c3)c(OC)c2)cc1OC` ?
A. 122

Q. Please report the recorded growth for `CC(=O)/C=C/c1ccc(N(CCO)Cc2ccc(C(C)(C)C)cc2)cc1` .
A. 87.5
